Molecular target: Thymidine kinase (Human herpesvirus 1 (strain SC16) (HHV-1) (Human herpes simplex virus1), UniProt P06479)
Sequence (P06479 whole entry): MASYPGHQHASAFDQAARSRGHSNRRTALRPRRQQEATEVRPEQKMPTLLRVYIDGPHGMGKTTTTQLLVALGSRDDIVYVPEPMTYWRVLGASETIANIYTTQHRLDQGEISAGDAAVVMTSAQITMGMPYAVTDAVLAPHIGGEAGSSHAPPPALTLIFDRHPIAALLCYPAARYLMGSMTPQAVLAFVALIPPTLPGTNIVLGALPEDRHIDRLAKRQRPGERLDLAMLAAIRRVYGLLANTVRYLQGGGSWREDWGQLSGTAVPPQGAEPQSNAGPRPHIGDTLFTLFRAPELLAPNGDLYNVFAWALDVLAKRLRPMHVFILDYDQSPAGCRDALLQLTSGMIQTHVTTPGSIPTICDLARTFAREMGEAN
Experiment: Inhibitory activity against Herpes simplex virus type-I specific thymidine kinase
Set-up: species or system Human alphaherpesvirus 1 strain SC16
Recorded endpoint: EC50 (µM)
Answers are plain numbers, in µM.

Field: EC50. Fill in for each record below.
1. CCCCc1ccc(Nc2nc3c(ncn3[C@H]3O[C@@H](CO)[C@H](O)[C@@H]3O)c(=O)[nH]2)cc1
2. O=C1N=C(Nc2ccccc2)N=C2C1N=CN2[C@H]1C[C@H](O)[C@@H](COP(=O)(O)O)O1 (some centres undefined)
3. CCCCc1ccc(Nc2nc3c(ncn3COCCO)c(=O)[nH]2)cc1
4. CCCCc1ccc(Nc2nc3c(ncn3[C@H]3C[C@H](O)[C@@H](CO)O3)c(=O)[nH]2)cc1

[75, 3, 140, 25]
